Source: PubChem BioAssay AID651813

In this section we review reported Potency values for a set of compounds.
Target: DNA dC->dU-editing enzyme APOBEC-3G (Homo sapiens)
Experiment: qHTS for inhibitors of Vif-A3G interactions: Cherry picks counterscreen;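 note: potency is the fitted concentration of half-maximal effect; hits raise yellow fluorescence by blocking Vif-driven A3G-eYFP degradation; nearly all actives have a fitted effect of over 70% in size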
Conditions: HeLa A3G-eYFP + Vif, eYFP fluorescence, 24 h
Source text: The recent discovery and characterization of host restriction factors, which provide a potent defense to invading retroviruses, has provided new targets for antiviral drug development. […] In the presence of an inhibitor, it is expected that Vif will be unable to degrade A3G-eYFP and/or A3F-eYFP, resulting in an increase in yellow fluorescence. […]
Screen size: about 2,100 compounds; about 1,100 (52%) were called active. About 27% were inconclusive and are not listed. So high a share suggests a set chosen from earlier hits. Some of the results follow.
Readout Kind: Potency

CN1CCN(c2ccc([N+](=O)[O-])cc2C(=O)c2ccc(Br)cc2)CC1 :: 4.98 µM (active)
CCN1C/C(=C/c2cccc([N+](=O)[O-])c2)C(=O)/C(=C/c2cccc([N+](=O)[O-])c2)C1 :: 5.59 µM (active)
CCOc1ccccc1Oc1nc(C)nc2c1oc1ccccc12 :: 2.91 µM (active)
Fc1ccc(-c2cnn3c(-c4cccs4)ccnc23)cc1 :: 5.59 µM (active)
COc1ccc(C(=O)c2cc([N+](=O)[O-])ccc2N2CCCC2)cc1 :: 7.04 µM (active)
COc1ccc2nc3ccccc3nc2c1NC(=O)c1ccc(Br)cc1 :: 14.6 µM (active)
CCOc1ccc(NC(=O)Cn2c(=O)n(Cc3ccc(C(=O)NCc4ccc(C)cc4)cc3)c(=O)c3ccccc32)cc1 :: 13 µM (active)
CN(C)c1ccc(/C=C/c2cc[n+](C)cc2)cc1 :: 12.5 µM (active)
COc1ccc(N=Cc2c(O)n(-c3cccc(C)n3)c(=O)c3ccccc23)c(OC)c1 :: 6.51 µM (active)
CN(Cc1cnn(Cc2ccccc2)c1)C(=O)c1cccc(S(=O)(=O)N2CCOCC2)c1 :: 11.2 µM (active)
CC[n+]1cc(C)ccc1/C=C/c1ccc(N(C)C)cc1 :: 17.7 µM (active)
Cc1ccc(C)c(NC(=O)N2CC=C(c3c[nH]c4ccccc34)CC2)c1 :: 16.4 µM (active)
Cc1ccc(/C=C/c2ccc(N(C)C)cc2)[n+](C)c1 :: 17.7 µM (active)
COc1ccc2o/c(=N/NC(=O)c3cccs3)c(C(N)=O)cc2c1 :: 12.5 µM (active)
CCOC(=O)c1c(Nc2ccc(Cl)cc2)sc(/C=C2\C=Nc3ccccc32)c1O :: 20.6 µM (active)
COC1=C/C(=C/c2c(N)n3nc(-c4ccc(C)cc4)sc3nc2=O)C=CC1=O :: 20.6 µM (active)
COc1cc(/C=C2\SC(=S)N(Nc3ncc(C(F)(F)F)cc3Cl)C2=O)ccc1O :: 20.6 µM (active)
CCCCn1c(NC(=O)c2ccco2)c(S(=O)(=O)c2ccc(C)cc2)c2nc3ccccc3nc21 :: 20.6 µM (active)
CCN1C/C(=C\c2cccc([N+](=O)[O-])c2)C(=O)/C(=C/c2cccc([N+](=O)[O-])c2)C1 :: 11.2 µM (active)
CN1C(=O)/C(=C\c2ccc(N(C)C)cc2)OC1=S :: 2.8 µM (active)

###

Molecular target: DNA dC->dU-editing enzyme APOBEC-3G (Homo sapiens)
Experiment: qHTS for inhibitors of Vif-A3G interactions: Cherry picks counterscreen;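 note: potency is the fitted concentration of half-maximal effect; hits raise yellow fluorescence by blocking Vif-driven A3G-eYFP degradation; nearly all actives have a fitted effect of over 70% in size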
Conditions: HeLa A3G-eYFP + Vif (tagged APOBEC3G with the HIV-1 protein that degrades it), eYFP fluorescence, 24 h
The campaign covered roughly 2,100 compounds. About 1,100 (52%) were called active. Roughly 27% stayed inconclusive and do not appear here. So high a share suggests a set chosen from earlier hits. The list shows a part of the results.
In this section we review reported Potency values for a set of compounds.
Readout Kind: Potency

Nc1c(C(=O)C2CC2)sc2nc(-c3cccs3)cc(C(F)(F)F)c12 :: 0.461 µM (active)
COc1ccc(NC(=O)C2(C)Cc3c(-c4cccc(NC(C)=O)c4)ccnc3O2)cc1 (stereo not given) :: 1.77 µM (active)
O=C(Nc1cc(=O)[nH]c(=O)[nH]1)c1cc(Cl)ccc1Cl :: 3.14 µM (active)
CN(C)c1ccc(/C=C/c2cc(/C=C/c3ccc(N(C)C)cc3)c3ccccc3n2)cc1 :: 3.66 µM (active)
COc1ccc(NC(=O)C2(C)Cc3c(-c4ccc5c(c4)OCO5)ccnc3O2)cn1 (stereo not given) :: 7.04 µM (active)
